Molecular target: RORc ligand binding domain (Homo sapiens, UniProt P51449)
Sequence (P51449 269-508 limits assumed): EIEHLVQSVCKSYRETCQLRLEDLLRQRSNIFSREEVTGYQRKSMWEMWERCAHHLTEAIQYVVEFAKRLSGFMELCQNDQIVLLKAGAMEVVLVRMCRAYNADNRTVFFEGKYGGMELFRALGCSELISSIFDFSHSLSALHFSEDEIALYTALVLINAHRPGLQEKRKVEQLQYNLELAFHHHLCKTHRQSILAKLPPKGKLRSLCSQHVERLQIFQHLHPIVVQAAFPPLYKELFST
pIC50: −log10 of the molar value.
observable: pIC50

The following compounds have reported results that may help.
CC1(C)[C@H]2CC[C@]1(c1ccnc(-n3cnc(C(N)=O)c3)n1)c1nnc(-c3c(F)cccc3F)cc12 [Example 261] | 7.93
CC1(C)[C@H]2CC[C@]1(c1ccnc(C(=O)NCCO)n1)c1nnc(-c3c(F)cccc3F)cc12 [Example 81] | 7.28
CC1(C)[C@@H]2CC[C@@]1(c1cncc(C(=O)NC3COC3)n1)c1nnc(-c3c(F)cccc3F)cc12 [Example 82] | 6.89
CC1(C)[C@H]2CC[C@]1(c1ccnc(-c3ccc(C(N)=O)nc3)n1)c1nnc(-c3c(F)cccc3F)cc12 [Example 373] | 8.40
C[C@@H](O)CNC(=O)c1nccc([C@@]23CC[C@@H](c4cc(-c5c(F)cccc5F)nnc42)C3(C)C)n1 [Example 115] | 7.20

P: CC(C)(O)c1nnc(-c2nccc([C@@]34CC[C@@H](c5cc(-c6c(F)cccc6F)nnc53)C4(C)C)n2)[nH]1 [Example 262]
Q: CC1(C)[C@H]2CC[C@]1(c1ccnc(N3CCCC3)n1)c1nnc(-c3c(F)cccc3F)cc12 [Example 329]
In terms of reported pIC50, does P or Q have the smaller number? Pick one; state its label.
P
(P: 7.43, Q: 8.55)

----------
Biological target: RORc ligand binding domain (Homo sapiens, UniProt P51449)
Sequence (P51449 269-508 limits assumed): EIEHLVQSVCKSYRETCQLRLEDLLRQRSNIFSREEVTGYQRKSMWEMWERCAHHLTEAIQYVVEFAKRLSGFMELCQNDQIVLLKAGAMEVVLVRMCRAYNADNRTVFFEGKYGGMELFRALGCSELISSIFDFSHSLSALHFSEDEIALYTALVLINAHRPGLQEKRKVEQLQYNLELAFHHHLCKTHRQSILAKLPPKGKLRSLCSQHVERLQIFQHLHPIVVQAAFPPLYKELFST
pIC50: −log10 of the molar value.
observable: pIC50

Some entries whose results are on file:
CC(C)(O)c1nnc(-c2cncc([C@@]34CC[C@@H](c5cc(-c6c(F)cccc6F)nnc53)C4(C)C)n2)o1 [Example 260] | 7.91
CC(C)(O)CNS(=O)(=O)c1cccc([C@@]23CC[C@@H](c4cc(-c5c(F)cccc5F)nnc42)C3(C)C)n1 [Example 198] | 7.58
CC1(C)[C@H]2CC[C@]1(c1cccc(S(=O)(=O)NCCO)n1)c1nnc(-c3c(F)cccc3F)cc12 [Example 162] | 7.64

I: CC1(C)[C@H]2CC[C@]1(c1ccnc(OCCO)n1)c1nnc(-c3c(F)cccc3F)cc12 [Example 333]
II: CC1(C)[C@H]2CC[C@]1(c1cc(C(N)=O)ccn1)c1nnc(-c3c(F)cccc3F)cc12 [Example 69]
Response body: label of entry with the larger pIC50; valid values I , II . Please indicate the selected item by its label.
I

a: CCS(=O)(=O)Cc1coc(-c2cncc([C@@]34CC[C@@H](c5cc(-c6c(F)cccc6F)nnc53)C4(C)C)n2)n1 [Example 434]
b: C[C@H](CO)NC(=O)c1cccc([C@@]23CC[C@@H](c4cc(-c5c(F)cccc5F)nnc42)C3(C)C)n1 [Example 54]
Quick one: lower pIC50, a or b ? When you have decided, please share the label of that item.
b

----------
Target: RORc ligand binding domain (Homo sapiens, UniProt P51449)
Sequence (P51449 269-508 limits assumed): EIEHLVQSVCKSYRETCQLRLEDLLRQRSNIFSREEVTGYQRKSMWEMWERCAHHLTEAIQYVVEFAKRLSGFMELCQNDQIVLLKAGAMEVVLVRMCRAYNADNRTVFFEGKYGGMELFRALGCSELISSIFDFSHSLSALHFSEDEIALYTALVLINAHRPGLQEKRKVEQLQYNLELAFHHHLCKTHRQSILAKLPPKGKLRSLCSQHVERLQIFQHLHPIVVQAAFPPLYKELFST
pIC50: −log10 of the molar value.
observable: pIC50

Use the examples below as a reference point.
CC1(C)[C@H]2CC[C@]1(c1nccc(C#N)n1)c1nnc(-c3c(F)cccc3F)cc12 | 7.57
CC1(C)[C@H]2CC[C@]1(c1cncc(-c3cnco3)n1)c1nnc(-c3c(F)cccc3F)cc12 | 8.48

1: CC(=O)Nc1ccnc([C@@]23CC[C@@H](c4cc(-c5c(F)cccc5F)nnc42)C3(C)C)c1
2: CC1(C)[C@H]2CC[C@]1(c1cccc(-c3nnc(CO)o3)n1)c1nnc(-c3c(F)cccc3F)cc12
3: CC1(C)[C@H]2CC[C@]1(c1ccnc(N3CCNC(=O)C3)n1)c1nnc(-c3c(F)cccc3F)cc12
Let's sort these by pIC50, smallest first. Go ahead? Form entry: labels listed in requested order.
1, 2, 3
(1: 6.93, 2: 7.94, 3: 8.22)

P: CC1(C)[C@H]2CC[C@]1(c1ccnc(-c3ccn[nH]3)n1)c1nnc(-c3c(F)cccc3F)cc12
Q: C[C@H](O)Cc1n[nH]c(-c2cncc([C@@]34CC[C@@H](c5cc(-c6c(F)cccc6F)nnc53)C4(C)C)n2)n1
Compare reported pIC50 values for P and Q . Which is lower? Lab log: write the label of the selected item as the result.
Q
(Q: 7.70, P: 8.01)

----------
Biological target: RORc ligand binding domain (Homo sapiens)
Sequence (P51449 269-508 limits assumed): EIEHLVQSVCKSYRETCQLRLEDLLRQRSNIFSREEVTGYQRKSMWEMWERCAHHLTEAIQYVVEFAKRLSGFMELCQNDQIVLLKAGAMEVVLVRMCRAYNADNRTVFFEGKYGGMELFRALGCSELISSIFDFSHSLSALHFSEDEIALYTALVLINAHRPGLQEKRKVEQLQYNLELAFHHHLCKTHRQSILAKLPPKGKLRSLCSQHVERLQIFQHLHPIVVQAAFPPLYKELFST
observable: IC50 (nM)

Below, 2 compounds whose answers are already recorded.
CC1(C)[C@H]2CC[C@]1(c1ccnc(-c3cc[nH]c(=O)c3)n1)c1nnc(-c3c(F)cccc3F)cc12 [Example 386] | 9.8
CC1(C)[C@H]2CC[C@]1(c1cccc(-c3cn[nH]c3)n1)c1nnc(-c3c(F)cccc3F)cc12 [Example 229] | 3

I: CC1(C)[C@H]2CC[C@]1(c1nccc(C(N)=O)n1)c1nnc(-c3c(F)cccc3F)cc12 [Example 46]
II: CC1(C)[C@H]2CC[C@]1(c1cncc(-c3c[nH]c(=O)[nH]3)n1)c1nnc(-c3c(F)cccc3F)cc12 [Example 174]
Sorting by IC50 in descending order, would I or II appear first? Which one? Tell me its label.
I
(I: 43.2 nM, II: 8.5 nM)

A: CN(CCO)C(=O)c1cccc([C@@]23CC[C@@H](c4cc(-c5c(F)cccc5F)nnc42)C3(C)C)n1 [Example 38]
B: CC1(C)[C@H]2CC[C@]1(c1ccnc(N3CCOCC3)n1)c1nnc(-c3c(F)cccc3F)cc12 [Example 328]
Sorting by IC50 in descending order, would A or B appear first? Your choice should be expressed through its label.
A

A: CC1(C)[C@H]2CC[C@]1(c1cncc(C(=O)N[C@H]3C[C@H](O)C3)n1)c1nnc(-c3c(F)cccc3F)cc12 [Example 94]
B: CC1(C)[C@H]2CC[C@]1(c1cncc(C(=O)NCCS(C)(=O)=O)n1)c1nnc(-c3c(F)cccc3F)cc12 [Example 110]
Larger number for IC50: A , or B ? Could you answer with the label of the item you picked?
B

P: CC1(C)[C@H]2CC[C@]1(c1ccnc(-c3cccnc3O)n1)c1nnc(-c3c(F)cccc3F)cc12 [Example 385]
Q: CNC(=O)c1nc(-c2ncc(F)c([C@@]34CC[C@@H](c5cc(-c6c(F)cccc6F)nnc53)C4(C)C)n2)no1 [Example 277]
// returns P or Q , whichever has the lower IC50 Indicate which entry you chose by stating its label.
Q
(Q: 12.4 nM, P: 19.7 nM)

1: CC1(NC(=O)c2cccc([C@@]34CC[C@@H](c5cc(-c6c(F)cccc6F)nnc53)C4(C)C)n2)CC1 [Example 40]
2: CC(C)(O)c1ccn(-c2nccc([C@@]34CC[C@@H](c5cc(-c6c(F)cccc6F)nnc53)C4(C)C)n2)n1 [Example 290]
3: CNS(=O)(=O)c1cccc([C@@]23CC[C@@H](c4cc(-c5c(F)cccc5F)nnc42)C3(C)C)n1 [Example 143]
4: COc1ccnc([C@@]23CC[C@@H](c4cc(-c5c(F)cccc5F)nnc42)C3(C)C)c1 [Example 26]
Please produce an ascending ranking of these compounds based on IC50. Rank them, then answer with their labels in that order.
3, 1, 2, 4
(3: 5.9 nM, 1: 9.9 nM, 2: 33.5 nM, 4: 57.2 nM)

P: CC(C)(O)CNC(=O)c1cncc([C@@]23CC[C@@H](c4cc(-c5c(F)cccc5F)nnc42)C3(C)C)n1 [Example 86]
Q: CC(C)(O)c1noc(-c2cncc([C@@]34CC[C@@H](c5cc(-c6c(F)cccc6F)nnc53)C4(C)C)n2)n1 [Example 248]
Of P and Q , which shows the smaller IC50 value? Returns: label corresponding to the selected item.
Q

A: CC1(C)[C@H]2CC[C@]1(c1cc(=O)cco1)c1nnc(-c3c(F)cccc3F)cc12 [Example 22]
B: CNS(=O)(=O)c1cncc([C@@]23CC[C@@H](c4cc(-c5c(F)cccc5F)nnc42)C3(C)C)n1 [Example 425]
C: CC1(C)[C@H]2CC[C@]1(c1cccc(C(O)CO)n1)c1nnc(-c3c(F)cccc3F)cc12 (some centres unmarked) [Example 237]
D: CC1(C)[C@H]2CC[C@]1(c1cncc(-c3nc(C(N)=O)co3)n1)c1nnc(-c3c(F)cccc3F)cc12 [Example 325]
// sort entries: IC50, high to low Hello, could you send the labels back in the order asked? Thank you.
A, B, D, C

P: CC1(C)[C@H]2CC[C@]1(c1cncc(C#N)n1)c1nnc(-c3c(F)cccc3F)cc12 [Example 14]
Q: CC1(C)[C@H]2CC[C@]1(c1nccc(=O)[nH]1)c1nnc(-c3c(F)cccc3F)cc12 [Example 20]
Returns the identifier with the smallest measured IC50 among P and Q . Identify your pick by its label.
P
(P: 5.7 nM, Q: 140 nM)
